meta.source: PubChem BioAssay

# tested_target: Short transient receptor potential channel 6 (Mus musculus) (UniProt Q61143)
# Sequence (Q61143 whole entry, looked up): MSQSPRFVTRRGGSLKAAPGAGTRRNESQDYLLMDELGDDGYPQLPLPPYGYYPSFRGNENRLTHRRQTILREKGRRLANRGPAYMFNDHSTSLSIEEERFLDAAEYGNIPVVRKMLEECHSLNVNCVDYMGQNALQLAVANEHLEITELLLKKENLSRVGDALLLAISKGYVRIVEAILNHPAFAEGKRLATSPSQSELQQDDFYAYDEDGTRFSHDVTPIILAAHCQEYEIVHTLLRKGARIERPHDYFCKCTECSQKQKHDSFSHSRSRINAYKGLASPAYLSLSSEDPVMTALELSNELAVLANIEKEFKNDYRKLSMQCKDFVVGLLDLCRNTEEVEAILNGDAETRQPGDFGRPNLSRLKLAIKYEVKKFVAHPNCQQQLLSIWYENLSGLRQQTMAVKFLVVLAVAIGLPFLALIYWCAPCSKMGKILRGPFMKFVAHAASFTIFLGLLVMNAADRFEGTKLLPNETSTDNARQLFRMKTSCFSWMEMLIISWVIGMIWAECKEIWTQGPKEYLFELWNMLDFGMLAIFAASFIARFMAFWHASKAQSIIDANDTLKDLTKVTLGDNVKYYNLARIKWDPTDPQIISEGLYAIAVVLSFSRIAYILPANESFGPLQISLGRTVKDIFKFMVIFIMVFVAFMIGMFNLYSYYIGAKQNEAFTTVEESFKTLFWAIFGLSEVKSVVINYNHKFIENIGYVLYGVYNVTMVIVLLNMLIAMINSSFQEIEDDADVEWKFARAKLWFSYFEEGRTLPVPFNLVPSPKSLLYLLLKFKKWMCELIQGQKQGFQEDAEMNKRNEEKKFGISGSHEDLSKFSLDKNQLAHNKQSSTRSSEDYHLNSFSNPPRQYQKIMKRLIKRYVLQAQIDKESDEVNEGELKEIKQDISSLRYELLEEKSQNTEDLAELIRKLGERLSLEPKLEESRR
# measurement_protocol: TRPC6 blockade by TRPC4 inhibitor hits – cell-based, HEK293, membrane potential dye, duplicate, selectivity assay for TRPC4 inhibitor project, confirmation (AID 434948)
# run_parameters: HEK293 TRPC6, membrane potential dye fluorescence, at 10 µM, stimulated with maximal-effect acetylcholine; stronger effect = higher value
Calls of active or inactive are those of the source.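 How the source made its calls: active means active in primary screen and both duplicates, each dropping signal beyond three positive-control SD with fluorescence still positive; inactive means the rest.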
readout_label: inhibition

{"compound": "Cc1cc(N/N=C/c2ccccc2F)c2ccccc2n1", "tested_target": "Short transient receptor potential channel 6 (Mus musculus) (UniProt Q61143)", "result": "inactive"}
{"compound": "COc1ccccc1-c1cc(-c2ccccc2)nc(=O)[nH]1", "tested_target": "Short transient receptor potential channel 6 (Mus musculus) (UniProt Q61143)", "result": "inactive"}
{"compound": "CCn1c(=O)n(CCOC)c(=O)c2c3c(sc21)CCCC3", "tested_target": "Short transient receptor potential channel 6 (Mus musculus) (UniProt Q61143)", "result": "inactive"}
{"compound": "Cc1cc(-c2csc3ncnc(N4CCN(C)CC4)c23)cc(C)c1C", "tested_target": "Short transient receptor potential channel 6 (Mus musculus) (UniProt Q61143)", "result": "inactive"}
{"compound": "Cc1ccc(-c2csc(NC(=O)C3CC=CCC3C(=O)O)c2C(=O)OC(C)C)cc1 (configuration not stated)", "tested_target": "Short transient receptor potential channel 6 (Mus musculus) (UniProt Q61143)", "result": "inactive"}

Provide the reported inhibition of each entry below, same order.
1. Cc1ccc(O)c(Sc2cc(C)ccc2O)c1
2. Cc1ccc(C)n1-c1ncc(Br)cn1
3. CCOC(=O)c1c(NC(NC(C)=O)C(Cl)(Cl)Cl)sc2c1CCCC2 (configuration not stated)
4. Cc1ccc(NC(=S)N(CCCN(C)C)Cc2cc3cc4c(cc3[nH]c2=O)OCO4)c(C)c1
5. COc1cccc(C(CNC(=O)C(c2ccccc2)c2ccccc2)N(C)C)c1 (configuration not stated)
6. COc1ccc(Cl)c2sc(N(CCN(C)C)C(=O)CCS(=O)(=O)c3ccc(C)cc3)nc12
7. O=C(c1ccc2c(c1)OCO2)C1CCCN(Cc2cc(F)ccc2-n2cccn2)C1 (configuration not stated)
8. CCN(CC)CCSc1nnc2c3ccccc3n(Cc3ccccc3)c2n1

1: 44.5% (active); 2: inactive; 3: inactive; 4: inactive; 5: inactive; 6: inactive; 7: inactive; 8: inactive

Batch request: inhibition for each of the following compounds.
1. CCn1c(C2CC(=O)N(Cc3ccccc3)C2)nc2ccccc21 (configuration not stated)
2. COc1cc(Cl)c(S(=O)(=O)N2CCN(Cc3ccc4c(c3)OCO4)CC2)cc1Cl

1. inactive
2. inactive

Please state, for each entry, its recorded inhibition.
1. O=C(Nc1nc2c(s1)CN(Cc1ccccc1)CC2)c1c(F)cccc1F
2. c1ccc2c3c([nH]c2c1)CCNC3
3. COc1cccc(N2C(=O)CC(N3CCN(CCN=CC4=C(O)CC(C)(C)CC4=O)CC3)C2=O)c1 (configuration not stated)
4. CCCCN(CC)CCNC(=O)Cn1cc2c(n1)-c1c(oc(C(=O)N3CCCC3)c1C)CC2
5. O=C(N/N=C/c1cc2c(cc1Br)OCO2)c1cc2ccccc2o1
6. Cc1cccc(Cn2c(N3CCN(c4ccccc4)CC3)nc3c2c(=O)n(C)c(=O)n3C)c1
7. Cc1ccc(C(C)C)cc1OCCCCN1CCCC1

["inactive", "inactive", "inactive", "inactive", "inactive", "inactive", "inactive"]
